Origin of the recorded values: the supplement of paper PMC3334620

Biological target: Nrg2 (UniProt P38082)
Sequence: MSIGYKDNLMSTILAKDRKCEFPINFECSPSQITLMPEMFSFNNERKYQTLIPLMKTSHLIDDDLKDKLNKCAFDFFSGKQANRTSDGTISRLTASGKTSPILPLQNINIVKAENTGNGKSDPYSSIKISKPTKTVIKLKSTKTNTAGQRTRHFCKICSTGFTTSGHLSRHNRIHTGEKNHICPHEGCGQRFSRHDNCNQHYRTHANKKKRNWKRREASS
Assay: PBM E-score (8-mer binding enrichment) (E-score (-0.5 to 0.5)); higher = stronger / more preferred TF binding
Conditions: protein concentration: 100 nM; construct: GST-full length
In all, about 33,000 sequences were measured (“E-score (-0.5 to 0.5)”: median about -8e-05, highest 2% from about 0.23 on). The full list was thinned out, with the highest values kept by preference.

- macromolecule.sequence: "GCGCAGAA"
  PBM E-score: 0.248
- macromolecule.sequence: "ATTGCGTA"
  PBM E-score: 0.145
- macromolecule.sequence: "GAATTCGA"
  PBM E-score: 0.0262
- macromolecule.sequence: "CCCATGGA"
  PBM E-score: -0.00741
- macromolecule.sequence: "ACCATGGG"
  PBM E-score: -0.0447
- macromolecule.sequence: "AAGAAGCC"
  PBM E-score: 0.162
- macromolecule.sequence: "CAGTAATA"
  PBM E-score: 0.161

====

Molecular target: Nrg2 (UniProt P38082)
Sequence: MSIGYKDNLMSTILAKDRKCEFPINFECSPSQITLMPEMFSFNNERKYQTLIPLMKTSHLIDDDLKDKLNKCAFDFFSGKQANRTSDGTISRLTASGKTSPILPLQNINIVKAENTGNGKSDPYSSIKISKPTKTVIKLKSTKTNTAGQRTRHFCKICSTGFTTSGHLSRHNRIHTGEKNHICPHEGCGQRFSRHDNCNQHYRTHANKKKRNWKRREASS
Test: PBM E-score (8-mer binding enrichment) (E-score (-0.5 to 0.5)); higher = stronger / more preferred TF binding
Conditions: protein concentration: 100 nM; construct: GST-full length
In all, about 33,000 sequences were measured (“E-score (-0.5 to 0.5)”: median about -8e-05, highest 2% from about 0.23 on). For the sample, the highest values were picked, then their nearest neighbours and some sequences at random.
Use Y when the recorded PBM E-score is no lower than 0.06; use N when it is lower.

- macromolecule.sequence: "AAGGGTTG"
  class.name: "Y"
- macromolecule.sequence: "CCAACACG"
  class.name: "N"
- macromolecule.sequence: "CGGACCTC"
  class.name: "N"
- macromolecule.sequence: "CAAACAGC"
  class.name: "N"
- macromolecule.sequence: "AAATTGGT"
  class.name: "Y"

====

Biological target: Nrg2 (UniProt P38082)
Sequence: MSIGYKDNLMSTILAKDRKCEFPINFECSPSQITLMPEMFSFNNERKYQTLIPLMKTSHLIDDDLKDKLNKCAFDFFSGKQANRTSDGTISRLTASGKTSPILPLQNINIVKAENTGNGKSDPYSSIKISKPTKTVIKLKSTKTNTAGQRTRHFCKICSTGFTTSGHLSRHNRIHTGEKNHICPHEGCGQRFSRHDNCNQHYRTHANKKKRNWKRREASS
Assay: PBM E-score (8-mer binding enrichment) (E-score (-0.5 to 0.5)); higher = stronger / more preferred TF binding
Conditions: protein concentration: 100 nM; construct: GST-full length
Whole data set: some 33,000 sequences, median “E-score (-0.5 to 0.5)” near -8e-05, cut for the highest 2% near 0.23. The entries come from a sample that favours the highest values as a whole.
Threshold rule: PBM E-score greater than or equal to 0.08 is TRUE; below that, FALSE.

- macromolecule.sequence: "GCACTAGA"
  class.name: "FALSE"
- macromolecule.sequence: "CATAGCTC"
  class.name: "FALSE"
- macromolecule.sequence: "CTCCTGTA"
  class.name: "FALSE"
- macromolecule.sequence: "GTACGAGA"
  class.name: "TRUE"
- macromolecule.sequence: "GGACATCA"
  class.name: "FALSE"
- macromolecule.sequence: "GGCAGAAA"
  class.name: "TRUE"
- macromolecule.sequence: "AAAGCCCG"
  class.name: "FALSE"
- macromolecule.sequence: "TCCACCGA"
  class.name: "FALSE"
- macromolecule.sequence: "GTCAGCAC"
  class.name: "FALSE"
- macromolecule.sequence: "GGCAGAAC"
  class.name: "TRUE"
- macromolecule.sequence: "ATATCAAT"
  class.name: "TRUE"
- macromolecule.sequence: "CCTTTAGA"
  class.name: "FALSE"
- macromolecule.sequence: "GAAAGAAA"
  class.name: "TRUE"
- macromolecule.sequence: "ACGAATGA"
  class.name: "TRUE"
- macromolecule.sequence: "CGACATCA"
  class.name: "FALSE"

====

Molecular target: Nrg2 (UniProt P38082)
Sequence: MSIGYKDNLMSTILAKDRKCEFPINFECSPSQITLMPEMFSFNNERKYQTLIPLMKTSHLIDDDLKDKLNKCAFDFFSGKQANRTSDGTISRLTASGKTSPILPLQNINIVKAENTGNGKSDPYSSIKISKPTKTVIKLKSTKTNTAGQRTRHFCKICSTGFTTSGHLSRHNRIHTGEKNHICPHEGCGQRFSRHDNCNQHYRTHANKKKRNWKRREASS
Assay: PBM E-score (8-mer binding enrichment) (E-score (-0.5 to 0.5)); higher = stronger / more preferred TF binding
Settings: protein concentration: 100 nM; construct: GST-full length
The full ranking holds about 33,000 sequences; the median of “E-score (-0.5 to 0.5)” is about -8e-05, and the highest 2% start at about 0.23. The entries come from a sample that favours the highest values as a whole.

- macromolecule.sequence: "CAGCGCGC"
  PBM E-score: 0.21
- macromolecule.sequence: "GCGCGCGC"
  PBM E-score: 0.415
- macromolecule.sequence: "AAGGGCCT"
  PBM E-score: 0.0464
- macromolecule.sequence: "ATAAACCC"
  PBM E-score: 0.307
- macromolecule.sequence: "GACAGTAA"
  PBM E-score: 0.0902
- macromolecule.sequence: "CATGTAGG"
  PBM E-score: 0.092
- macromolecule.sequence: "CGGAACAC"
  PBM E-score: 0.264
- macromolecule.sequence: "GCGCGCCC"
  PBM E-score: 0.0648
- macromolecule.sequence: "ATACAAAA"
  PBM E-score: 0.218
- macromolecule.sequence: "GTAATCGA"
  PBM E-score: 0.154
- macromolecule.sequence: "AGCTAGCT"
  PBM E-score: 0.244
- macromolecule.sequence: "AGGCCGCC"
  PBM E-score: -0.0684
- macromolecule.sequence: "ATAGTAGA"
  PBM E-score: 0.102
- macromolecule.sequence: "AGCTAGCC"
  PBM E-score: -0.0348
- macromolecule.sequence: "ATAGTAAT"
  PBM E-score: 0.234
- macromolecule.sequence: "GAGCGCGA"
  PBM E-score: 0.196
- macromolecule.sequence: "GAGGGCCC"
  PBM E-score: 0.151
- macromolecule.sequence: "CCGAACCA"
  PBM E-score: -0.00203
- macromolecule.sequence: "ACGAACCA"
  PBM E-score: 0.235
- macromolecule.sequence: "CGGGCCCC"
  PBM E-score: 0.119
- macromolecule.sequence: "CGGAACAA"
  PBM E-score: 0.122
- macromolecule.sequence: "CTAAACCC"
  PBM E-score: -0.0134
- macromolecule.sequence: "GGGCCCCC"
  PBM E-score: -0.279
- macromolecule.sequence: "AGCTAGCG"
  PBM E-score: 0.00875
- macromolecule.sequence: "CCGCGGTA"
  PBM E-score: 0.119
- macromolecule.sequence: "CAGGGGTC"
  PBM E-score: 0.302
- macromolecule.sequence: "CGGGGCCC"
  PBM E-score: 0.221
- macromolecule.sequence: "ATCAACCA"
  PBM E-score: 0.0788
- macromolecule.sequence: "GGGGCCCC"
  PBM E-score: 0.267
- macromolecule.sequence: "AGGAACAC"
  PBM E-score: 0.131
- macromolecule.sequence: "AAGGGCCC"
  PBM E-score: 0.347

====

Each record here notes measured PBM E-score.
Target: Nrg2 (UniProt P38082)
Sequence: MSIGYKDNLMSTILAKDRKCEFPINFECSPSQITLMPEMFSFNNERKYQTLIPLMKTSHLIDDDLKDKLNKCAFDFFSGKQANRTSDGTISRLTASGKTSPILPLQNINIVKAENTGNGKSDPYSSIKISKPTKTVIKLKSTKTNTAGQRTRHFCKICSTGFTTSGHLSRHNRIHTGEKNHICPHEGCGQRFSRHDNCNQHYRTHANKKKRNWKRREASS
Assay: PBM E-score (8-mer binding enrichment) (E-score (-0.5 to 0.5)); higher = stronger / more preferred TF binding
Conditions: protein concentration: 100 nM; construct: GST-full length
The full ranking holds about 33,000 sequences; the median of “E-score (-0.5 to 0.5)” is about -8e-05, and the highest 2% start at about 0.23. Shown is part of a subset that was picked to be rich in the highest values.

- macromolecule.sequence: "CGAACAAA"
  PBM E-score: 0.279
- macromolecule.sequence: "CGAACAAG"
  PBM E-score: 0.165
- macromolecule.sequence: "CCCTGGAC"
  PBM E-score: 0.295
- macromolecule.sequence: "CTCACGCA"
  PBM E-score: 0.353
- macromolecule.sequence: "GAAGGACA"
  PBM E-score: -0.00553
